- target.of.assay: UniProt O42275
- test: Anticholinesterase Activity Assays
- assay.setup: pH 8
- Protocol: The substrates of the reaction were acetylthiocholine iodide and butyrylthiocholine iodide. 5,5'-dithio-bis(2-nitrobenzoic) acid (DTNB) was used for the measurement of the anticholinesterase activity. The solutions of the samples and galantamine in n-propanol were prepared at concentration of 4000 µg/mL. […] The hydrolysis of these substrates was monitored at 412 nm.
Entries whose IC50 is below 50 µM take rule met; entries at or above 50 µM take rule not met.

# example entries with known answers
[[record]]
smiles = "COc1cccc2cc(-c3csc(NC(=S)Nc4ccccc4)n3)c(=O)oc12"
label_value = "rule met"

[[record]]
smiles = "O=C(Nc1nc(-c2cc3ccccc3oc2=O)cs1)Nc1ccccc1F"
label_value = "rule met"

[[record]]
smiles = "O=C(Nc1ccc(Br)cc1)Nc1nc(-c2cc3ccccc3oc2=O)cs1"
label_value = "rule not met"


Dear colleague, could you confirm whether IC50 of O=C(Nc1ccc(Cl)cc1)Nc1nc(-c2cc3cc([N+](=O)[O-])ccc3oc2=O)cs1 falls below 50 µM? Thanks.
rule not met

Dear colleague, could you confirm whether IC50 of COc1cccc2cc(-c3csc(NC(=O)Nc4cccc(F)c4)n3)c(=O)oc12 falls below 50 µM? Thanks.
rule not met

Dear colleague, could you confirm whether IC50 of COc1cccc(NC(=O)Nc2nc(-c3cc4ccccc4oc3=O)cs2)c1 falls below 50 µM? Thanks.
rule not met

Dear colleague, could you confirm whether IC50 of COc1cccc2cc(-c3csc(NC(=O)Nc4ccc(I)cc4)n3)c(=O)oc12 falls below 50 µM? Thanks.
rule not met

Dear colleague, could you confirm whether IC50 of COc1ccc(NC(=O)Nc2nc(-c3cc4cc([N+](=O)[O-])ccc4oc3=O)cs2)cc1 falls below 50 µM? Thanks.
rule not met

Dear colleague, could you confirm whether IC50 of O=C(Nc1ccc(Cl)cc1)Nc1nc(-c2cc3ccccc3oc2=O)cs1 falls below 50 µM? Thanks.
rule met

Dear colleague, could you confirm whether IC50 of O=C(Nc1ccc(F)cc1)Nc1nc(-c2cc3ccccc3oc2=O)cs1 falls below 50 µM? Thanks.
rule not met

---

Parameter pIC50, tested on Carboxylic ester hydrolase (Equus caballus, UniProt Q9N1N9), listed per item.
Sequence (Q9N1N9 whole entry): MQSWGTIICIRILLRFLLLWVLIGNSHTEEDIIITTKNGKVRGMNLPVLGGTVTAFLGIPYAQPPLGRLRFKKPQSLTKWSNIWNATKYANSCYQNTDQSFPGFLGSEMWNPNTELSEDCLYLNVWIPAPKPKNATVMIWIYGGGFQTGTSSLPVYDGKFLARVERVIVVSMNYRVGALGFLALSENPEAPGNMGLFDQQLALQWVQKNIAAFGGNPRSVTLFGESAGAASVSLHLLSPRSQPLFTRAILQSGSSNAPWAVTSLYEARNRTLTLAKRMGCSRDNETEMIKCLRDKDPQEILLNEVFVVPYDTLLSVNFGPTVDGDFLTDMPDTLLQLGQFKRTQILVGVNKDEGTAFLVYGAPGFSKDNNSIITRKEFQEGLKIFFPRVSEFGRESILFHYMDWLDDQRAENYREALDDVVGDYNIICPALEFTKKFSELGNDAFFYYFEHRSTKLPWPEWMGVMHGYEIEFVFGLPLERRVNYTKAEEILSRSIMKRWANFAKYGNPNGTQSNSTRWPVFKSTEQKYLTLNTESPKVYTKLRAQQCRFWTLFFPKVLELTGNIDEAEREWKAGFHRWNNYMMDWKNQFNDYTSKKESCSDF
Note: pIC50 values are expressed as the negative base-10 logarithm of concentration in M.

Example compounds with recorded pIC50:
[[record]]
smiles = "COc1cccc2cc(-c3csc(NC(=S)Nc4ccc(C)cc4)n3)c(=O)oc12"
recorded_number = 4.44

[[record]]
smiles = "COc1cccc2cc(-c3csc(NC(=O)Nc4cccc([N+](=O)[O-])c4)n3)c(=O)oc12"
recorded_number = 4.11

[[record]]
smiles = "O=C(Nc1ccc(F)cc1)Nc1nc(-c2cc3ccccc3oc2=O)cs1"
recorded_number = 4.07

[[record]]
smiles = "O=C(Nc1ccccc1)Nc1nc(-c2cc3ccccc3oc2=O)cs1"
recorded_number = 4.13

[[record]]
smiles = "O=C(Nc1ccc(Br)cc1)Nc1nc(-c2cc3ccccc3oc2=O)cs1"
recorded_number = 4.02

[[record]]
smiles = "O=C(Nc1ccc(I)cc1)Nc1nc(-c2cc3cc([N+](=O)[O-])ccc3oc2=O)cs1"
recorded_number = 4.01

[[record]]
smiles = "O=C(Nc1ccc(Cl)cc1)Nc1nc(-c2cc3ccccc3oc2=O)cs1"
recorded_number = 4.05

[[record]]
smiles = "COc1cccc2cc(-c3csc(NC(=O)Nc4ccccc4)n3)c(=O)oc12"
recorded_number = 4.11

[[record]]
smiles = "COc1cccc2cc(-c3csc(NC(=S)Nc4ccc(F)cc4)n3)c(=O)oc12"
recorded_number = 4.34

[[record]]
smiles = "COc1cccc(NC(=O)Nc2nc(-c3cc4cccc(OC)c4oc3=O)cs2)c1"
recorded_number = 4.25


compound O=c1oc2ccccc2cc1-c1csc(NC(=S)Nc2cccc(F)c2)n1 , pIC50 observed: 4.68

compound COc1cccc2cc(-c3csc(NC(=O)Nc4ccc([N+](=O)[O-])cc4)n3)c(=O)oc12 , pIC50 observed: 4.08

---

Parameter pIC50, tested on UniProtKB O42275, listed per item.
Note: pIC50 values are expressed as the negative base-10 logarithm of concentration in M.

[[record]]
smiles = "O=C(Nc1ccc(Br)cc1)Nc1nc(-c2cc3cc([N+](=O)[O-])ccc3oc2=O)cs1"
measured_endpoint = "pIC50"
recorded_number = 4.34

[[record]]
smiles = "COc1cccc2cc(-c3csc(NC(=O)Nc4ccc(F)cc4)n3)c(=O)oc12"
measured_endpoint = "pIC50"
recorded_number = 3.94


compound COc1cccc2cc(-c3csc(NC(=S)Nc4ccc(C)cc4)n3)c(=O)oc12 , pIC50 observed: 4.29

compound COc1cccc2cc(-c3csc(NC(=O)Nc4ccc(C)cc4)n3)c(=O)oc12 , pIC50 observed: 4.09

compound COc1cccc2cc(-c3csc(NC(=O)Nc4cccc([N+](=O)[O-])c4)n3)c(=O)oc12 , pIC50 observed: 4.05

compound O=C(Nc1cccc(F)c1)Nc1nc(-c2cc3ccccc3oc2=O)cs1 , pIC50 observed: 4.24

compound Cc1ccc(NC(=O)Nc2nc(-c3cc4ccccc4oc3=O)cs2)cc1 , pIC50 observed: 4.09

compound COc1ccc(NC(=O)Nc2nc(-c3cc4ccccc4oc3=O)cs2)cc1 , pIC50 observed: 4.02

compound COc1cccc2cc(-c3csc(NC(=O)Nc4ccc([N+](=O)[O-])cc4)n3)c(=O)oc12 , pIC50 observed: 4.33

compound O=c1oc2ccccc2cc1-c1csc(NC(=S)Nc2cccc(F)c2)n1 , pIC50 observed: 4.78

compound O=c1oc2ccccc2cc1-c1csc(NC(=S)Nc2ccc(Cl)cc2)n1 , pIC50 observed: 5.12

compound Cc1ccc(NC(=O)Nc2nc(-c3cc4cc([N+](=O)[O-])ccc4oc3=O)cs2)cc1 , pIC50 observed: 4.03

compound O=C(Nc1cccc(Cl)c1)Nc1nc(-c2cc3ccccc3oc2=O)cs1 , pIC50 observed: 3.95

compound O=C(Nc1ccc([N+](=O)[O-])cc1)Nc1nc(-c2cc3ccccc3oc2=O)cs1 , pIC50 observed: 4.13

compound COc1ccccc1NC(=O)Nc1nc(-c2cc3ccccc3oc2=O)cs1 , pIC50 observed: 4.42

compound COc1cccc2cc(-c3csc(NC(=O)Nc4ccccc4F)n3)c(=O)oc12 , pIC50 observed: 4.18

compound COc1cccc2cc(-c3csc(NC(=S)Nc4ccc(Cl)cc4)n3)c(=O)oc12 , pIC50 observed: 5.34

compound COc1cccc2cc(-c3csc(NC(=O)Nc4ccccc4)n3)c(=O)oc12 , pIC50 observed: 4.08

compound O=C(Nc1ccc(I)cc1)Nc1nc(-c2cc3ccccc3oc2=O)cs1 , pIC50 observed: 4.04

compound COc1cccc(NC(=O)Nc2nc(-c3cc4cccc(OC)c4oc3=O)cs2)c1 , pIC50 observed: 4.08

compound COc1cccc2cc(-c3csc(NC(=S)Nc4cccc(F)c4)n3)c(=O)oc12 , pIC50 observed: 4.74

compound O=C(Nc1ccccc1)Nc1nc(-c2cc3cc([N+](=O)[O-])ccc3oc2=O)cs1 , pIC50 observed: 3.99

---

Parameter pIC50, tested on Carboxylic ester hydrolase (Equus caballus), listed per item.
Note: pIC50 values are expressed as the negative base-10 logarithm of concentration in M.

[[record]]
smiles = "O=C(Nc1ccc(Br)cc1)Nc1nc(-c2cc3cc([N+](=O)[O-])ccc3oc2=O)cs1"
recorded_number = 4.03


compound O=C(Nc1ccc(I)cc1)Nc1nc(-c2cc3ccccc3oc2=O)cs1 , pIC50 observed: 3.95

compound COc1cccc2cc(-c3csc(NC(=O)Nc4ccc(Cl)cc4)n3)c(=O)oc12 , pIC50 observed: 4.15

---

Measured pIC50 of individual entries
- target.of.assay: Acetylcholinesterase (Electrophorus electricus)
- Sequence (O42275 whole entry): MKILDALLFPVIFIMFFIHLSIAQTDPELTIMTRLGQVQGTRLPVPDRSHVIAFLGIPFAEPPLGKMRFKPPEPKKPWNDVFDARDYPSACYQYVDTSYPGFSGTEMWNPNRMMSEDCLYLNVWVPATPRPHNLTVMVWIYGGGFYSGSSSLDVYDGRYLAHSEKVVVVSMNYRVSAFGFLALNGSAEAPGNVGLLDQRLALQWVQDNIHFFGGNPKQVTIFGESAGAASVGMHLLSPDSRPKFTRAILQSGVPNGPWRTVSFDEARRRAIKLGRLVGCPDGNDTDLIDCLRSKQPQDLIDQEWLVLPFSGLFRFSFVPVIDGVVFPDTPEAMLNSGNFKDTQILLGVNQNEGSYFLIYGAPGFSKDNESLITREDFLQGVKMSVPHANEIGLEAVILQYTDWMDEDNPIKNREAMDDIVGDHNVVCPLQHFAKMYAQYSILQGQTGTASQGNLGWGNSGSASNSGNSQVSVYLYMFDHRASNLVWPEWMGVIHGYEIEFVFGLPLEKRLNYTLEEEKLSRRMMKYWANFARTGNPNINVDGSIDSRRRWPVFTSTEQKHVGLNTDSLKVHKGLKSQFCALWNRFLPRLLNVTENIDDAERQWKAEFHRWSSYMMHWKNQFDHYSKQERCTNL
Note: pIC50 values are expressed as the negative base-10 logarithm of concentration in M.

Example compounds with recorded pIC50:
[[record]]
smiles = "O=C(Nc1ccc(I)cc1)Nc1nc(-c2cc3cc([N+](=O)[O-])ccc3oc2=O)cs1"
measured_endpoint = "pIC50"
recorded_number = 4.57

[[record]]
smiles = "COc1cccc2cc(-c3csc(NC(=O)Nc4ccc(Cl)cc4)n3)c(=O)oc12"
measured_endpoint = "pIC50"
recorded_number = 3.97

[[record]]
smiles = "COc1cccc(NC(=O)Nc2nc(-c3cc4cc([N+](=O)[O-])ccc4oc3=O)cs2)c1"
measured_endpoint = "pIC50"
recorded_number = 4.41

[[record]]
smiles = "COc1ccc(NC(=O)Nc2nc(-c3cc4cccc(OC)c4oc3=O)cs2)cc1"
measured_endpoint = "pIC50"
recorded_number = 3.92


Form field pIC50 for item O=C(Nc1ccc(F)cc1)Nc1nc(-c2cc3cc([N+](=O)[O-])ccc3oc2=O)cs1 on Acetylcholinesterase (Electrophorus electricus): 3.87

Form field pIC50 for item COc1ccc(NC(=S)Nc2nc(-c3cc4cccc(OC)c4oc3=O)cs2)cc1 on Acetylcholinesterase (Electrophorus electricus): 4.39

Form field pIC50 for item COc1cccc2cc(-c3csc(NC(=O)Nc4ccc(Br)cc4)n3)c(=O)oc12 on Acetylcholinesterase (Electrophorus electricus): 4.16

Form field pIC50 for item O=C(Nc1ccccc1)Nc1nc(-c2cc3ccccc3oc2=O)cs1 on Acetylcholinesterase (Electrophorus electricus): 4.14

Form field pIC50 for item COc1cccc2cc(-c3csc(NC(=O)Nc4cccc(Cl)c4)n3)c(=O)oc12 on Acetylcholinesterase (Electrophorus electricus): 3.98

Form field pIC50 for item COc1cccc2cc(-c3csc(NC(=S)Nc4ccc(F)cc4)n3)c(=O)oc12 on Acetylcholinesterase (Electrophorus electricus): 4.63
